Counter-ions that a name gives are not always drawn.
Assign melting point to each entry below.

Ask: Complete the entry with melting point for Cc1ccc(NC(=O)C[n+]2c(C)n(Cc3ccccc3)c3ccccc32)cc1.[Br-] [Compound 10k]
Result: 220 to 221 °C

Ask: Complete the entry with melting point for COc1ccccc1NC(=O)C[n+]1cn(Cc2ccccc2)c2ccccc21.[Br-] [Compound 9l]
Result: 188 to 189 °C

Ask: Complete the entry with melting point for Cc1cccc(NC(=O)C[n+]2cn(Cc3ccccc3)c3ccccc32)c1.[Br-] [Compound 9j]
Result: 132 to 134 °C

Ask: Complete the entry with melting point for O=C(C[n+]1cn(Cc2ccccc2)c2ccccc21)Nc1cccc(Cl)c1.[Br-] [Compound 9a]
Result: 205 to 207 °C

Ask: Complete the entry with melting point for Cc1ccccc1NC(=O)C[n+]1c(C)n(Cc2ccccc2)c2ccccc21.[Br-] [Compound 10i]
Result: 168 to 170 °C

Ask: Complete the entry with melting point for O=C(C[n+]1cn(Cc2ccccc2)c2ccccc21)Nc1cccc([N+](=O)[O-])c1.[Br-] [Compound 9g]
Result: 162 to 163 °C

Ask: Complete the entry with melting point for O=C(C[n+]1cn(Cc2ccccc2)c2ccccc21)Nc1ccc(Cl)cc1.[Br-] [Compound 9b]
Result: 197 to 198 °C

Ask: Complete the entry with melting point for O=C(C[n+]1cn(Cc2ccccc2)c2ccccc21)Nc1ccccc1[N+](=O)[O-].[Br-] [Compound 9f]
Result: 142 to 143 °C

Ask: Complete the entry with melting point for Cc1n(Cc2ccccc2)c2ccccc2[n+]1CC(=O)Nc1ccccc1Br (as salt: bromide) [Compound 10c]
Result: 252 °C

Ask: Complete the entry with melting point for Cc1n(Cc2ccccc2)c2ccccc2[n+]1CC(=O)Nc1cccc(Cl)c1.[Br-] [Compound 10a]
Result: 210 to 213 °C

Ask: Complete the entry with melting point for COc1ccccc1NC(=O)C[n+]1c(C)n(Cc2ccccc2)c2ccccc21.[Br-] [Compound 10l]
Result: 244 to 246 °C

Ask: Complete the entry with melting point for Cc1n(Cc2ccccc2)c2ccccc2[n+]1CC(=O)Nc1cccc(Br)c1.[Br-] [Compound 10d]
Result: 242 °C

Ask: Complete the entry with melting point for Cc1ccccc1NC(=O)C[n+]1cn(Cc2ccccc2)c2ccccc21.[Br-] [Compound 9i]
Result: 162 to 163 °C

Ask: Complete the entry with melting point for O=C(C[n+]1cn(Cc2ccccc2)c2ccccc21)Nc1ccc([N+](=O)[O-])cc1.[Br-] [Compound 9h]
Result: 152 to 153 °C

Ask: Complete the entry with melting point for Cc1n(Cc2ccccc2)c2ccccc2[n+]1CC(=O)Nc1ccc([N+](=O)[O-])cc1 (as salt: bromide) [Compound 10h]
Result: 222 to 224 °C

Ask: Complete the entry with melting point for COc1ccc(NC(=O)C[n+]2c(C)n(Cc3ccccc3)c3ccccc32)cc1.[Br-] [Compound 10m]
Result: 235 to 238 °C

* * *

# Tested Target: α-glucosidase enzyme (Saccharomyces cerevisiae, UniProt P53341)
# Construct: purchased Sigma-Aldrich, Munich, Germany
# Sequence (P53341 whole entry): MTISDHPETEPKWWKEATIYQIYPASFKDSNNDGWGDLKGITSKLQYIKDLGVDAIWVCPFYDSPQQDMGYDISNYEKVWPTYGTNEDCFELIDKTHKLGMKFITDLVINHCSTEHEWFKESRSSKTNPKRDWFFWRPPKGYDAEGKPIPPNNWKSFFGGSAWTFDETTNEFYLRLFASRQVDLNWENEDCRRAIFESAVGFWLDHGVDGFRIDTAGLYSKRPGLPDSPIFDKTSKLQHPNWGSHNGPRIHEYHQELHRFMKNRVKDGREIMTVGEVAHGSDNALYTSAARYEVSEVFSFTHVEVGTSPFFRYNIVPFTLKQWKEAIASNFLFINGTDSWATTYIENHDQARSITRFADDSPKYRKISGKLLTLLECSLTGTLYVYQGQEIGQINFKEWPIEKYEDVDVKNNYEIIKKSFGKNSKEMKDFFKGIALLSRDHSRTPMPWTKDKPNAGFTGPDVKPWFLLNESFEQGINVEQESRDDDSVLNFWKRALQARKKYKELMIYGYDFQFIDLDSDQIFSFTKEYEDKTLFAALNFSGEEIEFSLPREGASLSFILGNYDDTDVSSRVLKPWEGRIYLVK
# Assay Procedure: biochemical
# Format: biochemical
pIC50: −log10 of the molar value.
Values of pIC50 greater than or equal to 4 map to criterion met; values below map to criterion not met.

Ask: Exam item: decide whether the reported pIC50 for Cc1n(Cc2ccccc2)c2ccccc2[n+]1CC(=O)Nc1ccc(Br)cc1.[Br-] [Compound 10e] is at least 4.
Result: criterion met

Ask: Exam item: decide whether the reported pIC50 for Cc1n(Cc2ccccc2)c2ccccc2[n+]1CC(=O)Nc1ccccc1Br [Compound 10c] is at least 4.
Result: criterion met

Ask: Exam item: decide whether the reported pIC50 for `O=C(C[n+]1cn(Cc2ccccc2)c2ccccc21)Nc1cccc(Br)c1.[Br-]` is at least 4.
Result: criterion not met

Ask: Exam item: decide whether the reported pIC50 for Cc1n(Cc2ccccc2)c2ccccc2[n+]1CC(=O)Nc1cccc(Cl)c1.[Br-] [Compound 10a] is at least 4.
Result: criterion met

Ask: Exam item: decide whether the reported pIC50 for `Cc1ccccc1NC(=O)C[n+]1cn(Cc2ccccc2)c2ccccc21.[Br-]` is at least 4.
Result: criterion not met

Ask: Exam item: decide whether the reported pIC50 for Cc1n(Cc2ccccc2)c2ccccc2[n+]1CC(=O)Nc1cccc([N+](=O)[O-])c1.[Br-] [Compound 10g] is at least 4.
Result: criterion met

Ask: Exam item: decide whether the reported pIC50 for `Cc1cccc(NC(=O)C[n+]2cn(Cc3ccccc3)c3ccccc32)c1.[Br-]` is at least 4.
Result: criterion not met
